These data points were gathered from paper PMC9967275.

Below, each of the compounds is paired with its reported % Cruzain Inhibition (Mean ± SEM) 0.001% Triton + BSA 1 mg/mL value.
SYSTEM TESTED: cruzain (Trypanosoma cruzi)
ASSAY PROCEDURE: Aggregation counter-assays: cruzain inhibition at varying Triton X-100 and after pre-incubation with BSA
Assay type: biochemical
Design: Cruzain is the truncated, recombinant-expressed cruzipain 1; Brian Shoichet (University of California San Francisco)
MEASUREMENT PARAMETERS: 0.001% Triton + BSA 1 mg/mL; compound µM: MMV687246 12.5, MMV687812 3.125, MMV688179 1.563, MMV688362 3.125, MMV688466 6.25, MMV690028 25
PROPERTY MEASURED: % Cruzain Inhibition (Mean ± SEM) 0.001% Triton + BSA 1 mg/mL (%)

SMILES: COc1cc(C2=NCCN2)cc2cc(-c3ccc(C4=NCCN4)cc3)oc12
ENDPOINT VALUE: 29
--
SMILES: N=C(N)Nc1ccc(-c2ccc(-c3ccc(NC(=N)N)cc3Cl)o2)c(Cl)c1
ENDPOINT VALUE: 89
--
SMILES: CN1CCN(S(=O)(=O)c2ccc(-c3ccc4c(Nc5ccc6nn[nH]c6c5)ccnc4c3)cc2)CC1
ENDPOINT VALUE: 45
--
SMILES: CN1CCN(CCCOc2ncc(Nc3ncc(-c4ccc(C(F)(F)F)c(F)c4)nc3C(N)=O)cn2)CC1
ENDPOINT VALUE: 85
--
SMILES: COc1ccc(C2=NN(C3CCCCCC3)C(=O)C2(C)C)cc1OCCCCOc1ccc(-c2nn[nH]n2)cc1
ENDPOINT VALUE: 91
--
SMILES: Cn1ccnc1CNCCS(=O)(=O)c1cccc(Nc2ccc(-c3cccc(F)c3)cn2)c1
ENDPOINT VALUE: 96

====

SYSTEM TESTED: cruzain (Trypanosoma cruzi, UniProt P25779)
Sequence (P25779 123-337 limits assumed): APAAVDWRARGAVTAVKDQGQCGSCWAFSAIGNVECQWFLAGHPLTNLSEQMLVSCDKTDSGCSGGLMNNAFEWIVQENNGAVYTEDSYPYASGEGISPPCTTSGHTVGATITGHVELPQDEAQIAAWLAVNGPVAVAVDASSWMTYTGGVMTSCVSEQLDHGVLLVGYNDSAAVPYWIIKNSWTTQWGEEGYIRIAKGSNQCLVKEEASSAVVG
ASSAY PROCEDURE: biochemical
MEASUREMENT PARAMETERS: 10’ (pre-incubation); sheet Screening results

MOLECULE: COc1ccc(OC(C)C(=O)Nc2ccc(Cl)cc2C)cc1 (stereo not drawn)
RESULT UNIT: %
Cruzain Inhibition 10’: -11
//
MOLECULE: O=C(Nc1nnc(-c2ccc(Cl)s2)o1)c1ccc(Cl)s1
RESULT UNIT: %
Cruzain Inhibition 10’: -16
//
MOLECULE: O=C(NC1CC1)c1ccc(N2CCC(Cc3ccccc3)CC2)nc1
RESULT UNIT: %
Cruzain Inhibition 10’: 6
//
MOLECULE: CC(=O)Nc1ccc(-c2noc(CC3CCCN(Cc4cccc(F)c4C)C3)n2)cc1 (stereo not drawn)
RESULT UNIT: %
Cruzain Inhibition 10’: 3.6
//
MOLECULE: Cc1cc(C(=O)Nc2cnn(Cc3ccc(Cl)cc3Cl)c2)no1
RESULT UNIT: %
Cruzain Inhibition 10’: -2
//
MOLECULE: Cc1ccc(S(=O)(=O)Nc2ccc(CN3CCN(C(=O)c4cccc(C#N)c4)CC3)cc2)cc1
RESULT UNIT: %
Cruzain Inhibition 10’: 8
//
MOLECULE: CS(=O)(=O)c1cccc(-c2cnc3[nH]cc(-c4ccc(CCC(=O)O)cc4)c3c2)c1
RESULT UNIT: %
Cruzain Inhibition 10’: 17
//
MOLECULE: c1ccc(-c2[nH]c3ccccc3c2C(c2ccccn2)N2CCCC2)cc1 (stereo not drawn)
RESULT UNIT: %
Cruzain Inhibition 10’: 1
//
MOLECULE: NCCN(C(=O)c1ccc(Cl)cc1Cl)c1ccc(OCc2ccc(Cl)cc2)cc1
RESULT UNIT: %
Cruzain Inhibition 10’: 12

====

SYSTEM TESTED: UniProtKB P25779
ASSAY PROCEDURE: biochemical
MEASUREMENT PARAMETERS: read-out: Inhibition of cruzain or TbrCatL (either enzyme) in the initial screening, 5 µM; either cruzain or TbrCatL, with or without pre-incubation

MOLECULE: CN1CCN(S(=O)(=O)c2ccc(-c3ccc4c(Nc5ccc6nn[nH]c6c5)ccnc4c3)cc2)CC1 [MMV687246]
inhibition at 5 µM: ≥ 40%

MOLECULE: CCn1cnc2c(Nc3cc(F)cc(F)c3)nc(C#N)nc21 [MMV676881, reference compound]
inhibition at 5 µM: ≥ 60%

MOLECULE: O=C(NCCN1CCCC1)c1cc(NCCCCN2CCC(F)(F)CC2)nc2ccc(Cl)cc12 [MMV667494]
inhibition at 5 µM: ≥ 60%

MOLECULE: COc1ccc(C2=NN(C3CCCCCC3)C(=O)[C@H]3CC=CC[C@@H]23)cc1OCCCCOc1ccc(-c2nn[nH]n2)cc1 [MMV690027]
inhibition at 5 µM: ≥ 40%

====

Below, each of the compounds is paired with its reported TbrCatL Inhibition 10’ value.
SYSTEM TESTED: TbrCatL (Trypanosoma brucei rhodesiense)
Construct: Conor Caffrey (University of California San Diego)
ASSAY PROCEDURE: TbrCatL enzymatic inhibition assay (cleavage of fluorogenic substrate Z-FR-AMC);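 as to TbrCatL Inhibition 10’: at 5 µM compound concentration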
Type: biochemical
MEASUREMENT PARAMETERS: 10’ (pre-incubation); sheet Screening results

SMILES: CC[C@@H]([C@H](C)O)n1ncn(-c2ccc(N3CCN(c4ccc(OC[C@@H]5CO[C@@](Cn6cncn6)(c6ccc(F)cc6F)C5)cc4)CC3)cc2)c1=O
TbrCatL Inhibition 10’ / %: 8

SMILES: COc1ccc(-c2cc(NC(=O)c3ccc(F)cc3Cl)ccc2OC)cc1
TbrCatL Inhibition 10’ / %: -15

SMILES: Cc1ccc(NC(=O)c2nc[nH]c2C(=O)Nc2nc3ccccc3[nH]2)c(C)c1
TbrCatL Inhibition 10’ / %: -43

SMILES: Cc1cccc(Cn2ccc(NC(=O)c3ccc4c(c3)OCO4)n2)c1
TbrCatL Inhibition 10’ / %: 1.8

SMILES: COc1cccn2c(C(=O)N3CCCCC3)c(C(F)(F)F)nc12
TbrCatL Inhibition 10’ / %: 6.4

====

Below, each of the molecules is paired with its reported inhibition at 5 µM value.
SYSTEM TESTED: cruzain (Trypanosoma cruzi)
ASSAY PROCEDURE: biochemical
MEASUREMENT PARAMETERS: read-out: Cruzain 0’ Inhibition, 0’ (pre-incubation time); sheet "Screening results"
PROPERTY MEASURED: inhibition at 5 µM

MOLECULE: N=C(N)Nc1ccc(-c2ccc(-c3ccc(NC(=N)N)c(Cl)c3)o2)cc1Cl [MMV688271]
ENDPOINT VALUE: 83%
//
MOLECULE: N#Cc1ccc(-c2cnc(N)c(-c3ccc(C(N)=O)cc3)n2)cc1 [MMV085499]
ENDPOINT VALUE: 0.5%
//
MOLECULE: O=C(NCCN1CCCC1)c1cc(NCCN2CCOCC2)nc2ccc(Cl)cc12 [MMV634140]
ENDPOINT VALUE: 24%
//
MOLECULE: CN1CCN(S(=O)(=O)c2ccc(-c3ccc4c(Nc5ccc6nn[nH]c6c5)ccnc4c3)cc2)CC1 [MMV687246]
ENDPOINT VALUE: 24%

====

SYSTEM TESTED: TbrCatL (Trypanosoma brucei rhodesiense, UniProt Q95PM0)
Construct: Conor Caffrey (University of California San Diego)
Sequence (Q95PM0 entry or part of it): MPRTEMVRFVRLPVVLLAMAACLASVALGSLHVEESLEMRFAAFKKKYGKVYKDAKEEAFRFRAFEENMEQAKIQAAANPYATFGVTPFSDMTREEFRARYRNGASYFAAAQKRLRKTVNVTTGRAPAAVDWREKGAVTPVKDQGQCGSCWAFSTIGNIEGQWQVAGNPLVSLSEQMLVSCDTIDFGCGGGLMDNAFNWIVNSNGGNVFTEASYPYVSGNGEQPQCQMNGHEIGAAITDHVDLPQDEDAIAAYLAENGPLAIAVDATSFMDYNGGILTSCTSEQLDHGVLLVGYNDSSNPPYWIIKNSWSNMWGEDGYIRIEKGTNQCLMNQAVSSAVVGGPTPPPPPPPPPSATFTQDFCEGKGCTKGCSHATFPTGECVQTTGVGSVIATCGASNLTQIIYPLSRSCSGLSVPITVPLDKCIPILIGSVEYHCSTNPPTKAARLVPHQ
ASSAY PROCEDURE: TbrCatL enzymatic inhibition assay (cleavage of fluorogenic substrate Z-FR-AMC);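 as to TbrCatL Inhibition 10’: at 5 µM compound concentration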
Format: biochemical
MEASUREMENT PARAMETERS: 10’ (pre-incubation); sheet Screening results
Experimental: Allison Doak and Prof. Brian Shoichet (University of California San Francisco, San Francisco, CA, USA) and Prof. Conor Caffrey (University of California San Diego, San Diego, CA, USA) generously provided recombinant cruzain and TbrCatL, respectively. In vitro activity of proteases cruzain and TbrCatL was assayed as previously described. Briefly, enzyme activity was measured by monitoring the cleavage of the fluorogenic substrate Z-Phe-Arg-amidomethylcoumarin (Z-FR-AMC) at 25 °C. […]

SMILES: O=S(=O)(c1ccc(Cl)cc1)N1CCN(C(=S)NCc2ccco2)CC1
TbrCatL Inhibition 10’ (%): 6

SMILES: O=C(Nc1cccnc1)c1c(O)c2cccc3c2n(c1=O)CC3
TbrCatL Inhibition 10’ (%): 19

SMILES: NC(=O)c1cc(Br)ccc1OCCOc1ccccc1
TbrCatL Inhibition 10’ (%): -18

SMILES: CC[C@H](CO)NCCN[C@H](CC)CO
TbrCatL Inhibition 10’ (%): 0.4

SMILES: c1csc(-c2cnc3sc(NCC4CCOCC4)nn23)c1
TbrCatL Inhibition 10’ (%): 19

====

SYSTEM TESTED: TbrCatL (Trypanosoma brucei rhodesiense, UniProt Q95PM0)
Construct: Conor Caffrey (University of California San Diego)
ASSAY PROCEDURE: TbrCatL enzymatic inhibition assay (cleavage of fluorogenic substrate Z-FR-AMC)
Format: biochemical
MEASUREMENT PARAMETERS: IC50 (µM ± SEM %) TbrCatL 0′, no pre-incubation
IC50 vs 4 µM: less than gives TRUE; not less than gives FALSE.

SMILES: COc1ccc(C2=NN(C3CCCCCC3)C(=O)C2(C)C)cc1OCCCCOc1ccc(-c2nn[nH]n2)cc1
CLASS ASSIGNMENT: FALSE

SMILES: CN1CCN(S(=O)(=O)c2ccc(-c3ccc4c(Nc5ccc6nn[nH]c6c5)ccnc4c3)cc2)CC1
CLASS ASSIGNMENT: FALSE

SMILES: CN1CCN(CCCOc2ncc(Nc3ncc(-c4ccc(C(F)(F)F)c(F)c4)nc3C(N)=O)cn2)CC1
CLASS ASSIGNMENT: TRUE

SMILES: COc1cc(C2=NCCN2)cc2cc(-c3ccc(C4=NCCN4)cc3)oc12
CLASS ASSIGNMENT: TRUE
